# credit: patent US20210330611A1

tested on: LPS-induced microglia activation; test: Image-based assay of LPS-induced microglia activation (HTS and dose response); assay type: cell-based, rat
Where a name gives a salt, the structure may show the parent alone.
recorded endpoint: LPS % inhibition (%)
# unit: % | format: bare number

Some entries whose results are on file:
{"molecule": "CCCC(C(=O)OCCN(CC)CC)(c1ccccc1)c1ccccc1.Cl", "LPS % inhibition, %": 5}
{"molecule": "CN(CCOc1ccc(CC2SC(=O)NC2=O)cc1)c1ccccn1 (stereo not shown) [Rosiglitazone, Rosiglitazone Maleate]", "LPS % inhibition, %": 20}
{"molecule": "CNCCCC12CCC(c3ccccc31)c1ccccc12", "LPS % inhibition, %": 78}
{"molecule": "O=C(O)c1cc(O)c2c(c1)[C@H]([C@H]1c3cc(C(=O)O)cc(O)c3C(=O)c3c(O[C@@H]4O[C@H](CO)[C@@H](O)[C@H](O)[C@H]4O)cccc31)c1cccc(O[C@@H]3O[C@H](CO)[C@@H](O)[C@H](O)[C@H]3O)c1C2=O [Sennoside A]", "LPS % inhibition, %": 14}
{"molecule": "C=C[C@H]1C[N@@]2CC[C@H]1C[C@H]2[C@H](O)c1ccnc2ccc(OC)cc12 [Quinine Sulfate]", "LPS % inhibition, %": 14}

Quick check: LPS % inhibition of CC(=O)[C@H]1CC[C@H]2[C@@H]3CC=C4C[C@@H](O)CC[C@]4(C)[C@H]3CC[C@]12C ? 12

Next molecule: Cc1cc(CC(C)CC(C)(C)C)n(O)c(=O)c1.NCCO (stereo not shown) 39

---

test system: fibrin-induced microglia activation; experiment: Image-based assay of fibrin-induced microglia activation (HTS and dose response); format: cell-based, rat; settings: primary microglia HTS, fibrin stimulation, cell size >800 μm2 as marker of activation
recorded endpoint: Fibrin % inhibition (%)
# unit: % | format: bare number

Quick check: Fibrin % inhibition of Cc1cc(CC(C)CC(C)(C)C)n(O)c(=O)c1.NCCO (stereo not shown) [Piroctone Olamine] ? 44

Next compound: O=C(O)CN(CCN(CC(=O)O)CC(=O)O)CCN(CC(=O)O)CC(=O)O 11

Next compound: COc1ccc2nc3cc(Cl)ccc3c(Nc3cc(CN4CCCC4)c(O)c(CN4CCCC4)c3)c2n1.O=P(O)(O)O.O=P(O)(O)O.O=P(O)(O)O.O=P(O)(O)O [Pyronaridine Tetraphosphate] 16

Next compound: CCCc1cc(C(N)=S)ccn1 [Protionamide, Ektebin] −18

---

tested on: LPS-induced microglia activation; assay: Image-based assay of LPS-induced microglia activation (HTS and dose response); type: cell-based, rat; conditions: Rattus norvegicus, Microglia, read-out: LPS % inhibition
Given measured inhibition at 10 µM, output T if it is greater than or equal to 20% and F if not.

Some entries whose results are on file:
{"compound": "COC(=O)[C@H](c1ccccc1Cl)N1CCc2sccc2C1 [Clopidogrel]", "label value": "F"}
{"compound": "CN/C(=N/CCSCc1nc[nH]c1C)NC#N [Cimetidine]", "label value": "T"}
{"compound": "NCCCCCC(=O)O [Aminocaproic Acid]", "label value": "F"}
{"compound": "Oc1ccc2ccccc2c1 [Beta-naphthol]", "label value": "F"}
{"compound": "CCCCNC(=O)NS(=O)(=O)c1ccc(C)cc1 [Tolbutamide]", "label value": "T"}

Threshold query (inhibition at 10 µM >= 20%) on O=c1[nH]c2ccccc2n1CCCN1CCC(n2c(=O)[nH]c3cc(Cl)ccc32)CC1 [Domperidone] F

Next compound: Cc1cc(NS(=O)(=O)c2ccc(N)cc2)no1 [Sulfamethoxazole] F

Next compound: COc1cc2c(cc1OC)C(=O)C(CC1CCN(Cc3ccccc3)CC1)C2 (stereo not shown) [Donepezil] F

Next compound: CC/C(=C(\c1ccccc1)c1ccc(OCCN(C)C)cc1)c1ccccc1 [Tamoxifen] F

Next compound: O=C(O)c1cn(C2CC2)c2cc(N3CCNCC3)c(F)cc2c1=O [Ciprofloxacin] F
